Tested on: DPSCs
protocolNotes: Crystal violet cell viability assay of DPSCs in osteogenic medium
Type: cell-based
conditionDetails: 0.5, 1 and 5 µM; 3, 7, 14, 21 and 28 days; vs Control (diff)
resultType: Cell viability / toxicity towards DPSCs

* O=C(/C=C/c1ccc(O)c(O)c1)Oc1cccc2cccnc12 [compound 1d] | no toxicity
* O=C(/C=C/c1ccccc1)Oc1cccc2cccnc12 [compound 1a] | no toxicity
* O=C(/C=C/c1ccc(O)c(O)c1)Nc1cccc2cccnc12 [compound 2d] | no toxicity
* O=C(/C=C/c1ccccc1)Nc1cccc2cccnc12 [compound 2a] | no toxicity
